Test system: SF-295 CNS
Measurement description: NCI-60 one-dose screen, 48 h (100 = growth as untreated, 0 = no growth, -100 = all killed)
Particulars: 10 µM unless noted
This is part of a sample that, as a whole, favours compounds with a hit. Of some 83,000 tested, about 20% had one in any assay.
Class 1 (yes): growth at least 70%. Class 0 (no): growth below 70%.

| Molecule | Experimental system | Category label |
| --- | --- | --- |
| O=S(=O)(CCN1CCOCC1)Nc1cncc(-c2ccc3ncnc(Nc4ccc(F)c(Cl)c4)c3c2)c1 | SF-295 CNS | 1 (yes) |
| Cc1ccccc1C[P+](c1ccccc1)(c1ccccc1)c1ccccc1 | SF-295 CNS | 0 (no) |
| C=C1C(=O)O[C@H]2[C@H]1CC/C(COC(=O)c1ccc(C#N)cc1)=C\CC[C@@]1(C)O[C@@H]21 | SF-295 CNS | 1 (yes) |
| COc1ccc2c(c1)OC(N)=C(C#N)C2c1ccc(F)c(F)c1 (stereo not given) | SF-295 CNS | 0 (no) |
| COc1cc(NS(C)(=O)=O)ccc1Cc1c2ccccc2nc2ccccc12 | SF-295 CNS | 0 (no) |
| NC(CCCC(N)C(=O)c1ccccc1)C(=O)O (stereo not given) | SF-295 CNS | 1 (yes) |
| O=[N+]([O-])c1cccc(C(c2ccccc2)c2ccccc2)c1 | SF-295 CNS | 1 (yes) |
| Cc1c(F)cccc1NC(=O)c1sc2nc3c(cc2c1N)CCCCC3 | SF-295 CNS | 0 (no) |
| COc1cc(NC(C)CCCN2C(=O)c3ccccc3C2=O)c2nccc(C)c2c1OC (stereo not given) | SF-295 CNS | 1 (yes) |

###

Test system: SK-OV-3 ovarian
Measurement description: NCI-60 one-dose screen, 48 h (100 = growth as untreated, 0 = no growth, -100 = all killed)
Particulars: 10 µM unless noted
The panel holds about 83,000 compounds, 20% with a hit somewhere; the sample as a whole holds those more often.
Output true for records whose growth is lower than 80%, false for records at or above 80%.

| Compound | Category label |
| --- | --- |
| Cc1ccc(-c2cn3cc([N+](=O)[O-])ccc3n2)cc1 | false |
| Clc1ccc2c(NCCNc3nc(Cl)nc4ccccc34)ccnc2c1 | true |
| Nc1nccc2c1ccn2-c1ccc(NC(=O)Nc2cccc(C(F)(F)F)c2)cc1 | false |
| N#Cc1c(N)nc(Cl)c(C#N)c1C(=O)c1ccccc1 | true |
| COc1cc(CN(c2ccc(Cl)cc2)C2OC(=O)c3ccccc32)cc(OC)c1OC (centres undefined) | true |
| O=S(c1ccccc1)c1ccc2nnnn2n1 (centres undefined) | false |
| CCOC(=O)NNc1nncc2ccccc12 | false |
| COc1ccc(-c2ccc(NC(=O)Nc3ccc(Cl)c(C(F)(F)F)c3)c(C)n2)cc1 | true |
| COC(=O)c1ccc2c(c1)Oc1ccc(Cl)cc1-c1cc(C)nn1-2 | true |
| COC(OC)C1(c2ccccc2)NC(=O)NC1=O (centres undefined) | false |
| NC(CSC(c1ccccc1)(c1ccccc1)c1ccc(F)cc1)C(=O)O (centres undefined) | true |
| O=C1CCC(=O)N1C1CCCCC1 | false |
| COc1ccc(-c2nn(-c3ccc(NC(=O)Nc4ccc(Cl)c(C(F)(F)F)c4)cc3)cc2-c2ccncc2)cc1Cl | true |
| O=[N+]([O-])c1ccc(NS(=O)(=O)c2ccccc2)c2ccccc12 | true |
| COc1ccc(-c2nnc(NC(=O)CN3CCN(c4cc5c(cc4F)c(=O)c(C(=O)O)cn5C4CC4)CC3)s2)cc1OC | false |
| Cc1c(F)cccc1NC(=O)c1sc2nc3c(cc2c1N)CCCCC3 | true |
| COc1ccc(-c2nn(-c3ccc(NC(=O)c4ccc(Cl)c(C(F)(F)F)c4)cc3)cc2-c2ccncc2)cc1Cl | true |
| CCOc1cccc(Nc2nc(N)nc3[nH]c4ccc(O)cc4c23)c1 | true |
| CCN(CC)C(=O)C1CCN(C(=O)c2ccccc2)CC1 | false |
| C[C@@H]1CC2C3C[C@H](F)C4=CC(=O)C=C[C@]4(C)[C@@]3(F)[C@@H](O)C[C@]2(C)[C@@]1(O)C(=O)CO (some centres undefined) | true |
| CNCCCOc1c(Br)cc(CCNC(=O)/C(Cc2cc(Br)c(OC)c(Br)c2)=N/O)cc1Br | true |
| c1ccc(OCC[P+](c2ccccc2)(c2ccccc2)c2ccccc2)cc1 | true |
| Nc1ncnc2c1c(C(F)(F)F)cn2[C@@H]1O[C@H](CO)[C@@H](O)[C@H]1O | true |
| CN1CCN(CC(O)COc2c(Br)c(Br)c(Br)c3c2OC(C)(C)C3)CC1 (centres undefined) | false |
| O=C(Nc1ccc(-n2ccc3c(NC(=O)c4ccccc4)ncnc32)cc1)c1cccc(C(F)(F)F)c1 | true |
| CC(=O)c1cc2c(c(O)c1C)C(=O)C(=O)c1c(O)cccc1-2 | true |
| Cc1ccc2nc(-c3ccc(-n4on4-c4ccc(/C=C/c5ccc(-n6on6-c6ccc(-c7nc8ccc(C)cc8s7)cc6)cc5S(=O)(=O)O)c(S(=O)(=O)O)c4)cc3)sc2c1 | false |
| COc1ccc(Cl)cc1NC(=O)c1cc2c(n1C)-c1nc(NC(=O)C(C)(C)C)sc1CC2 | true |
| O=C(Nc1ccc(-n2ccc3c(NC(=O)c4ccccc4)nccc32)cc1)Nc1cccc(C(F)(F)F)c1 | false |
| O=C(O)c1ccc(-n2cc(/C=N/Nc3ccc(Cl)cc3)c(-c3ccc(F)c(F)c3)n2)cc1 | false |
| O=C(O)c1cc2ccccc2cc1Nc1ccccc1 | false |
| CCNC(=O)Oc1ccc(/C(=C(/CC)Cc2ccccc2)c2ccc(OCCN3CCOCC3)cc2)cc1 | true |
| CC(=O)O[C@@H]1[C@@H](OC(C)=O)[C@H](OC(C)=O)CO[C@H]1Nc1cccc2ccccc12 | false |
| CCN(CC)c1ccc(C2CC(c3cc(OC)c(OC)c(OC)c3)=NN2)cc1 (centres undefined) | true |
| NS(=O)(=O)c1ccc(Nc2nc(O)c(/C=C3\C=Nc4ccccc43)s2)cc1 | false |
| C=C1C(=O)O[C@H]2[C@H]1CC/C(COC(=O)c1ccc(Cl)nc1)=C\CC[C@@]1(C)O[C@@H]21 | false |
| COc1ccc(-c2nn(-c3cccc(Cl)c3)cc2-c2cc(-c3ccc(Br)cc3)[nH]c(=O)c2C#N)cc1 | false |
| CC(C)C(=O)Nc1nc2c(s1)CCCc1ccn(S(=O)(=O)c3ccccc3)c1-2 | false |
| O=C(CSc1nnc(-c2cc3c([nH]c4ccccc43)c(-c3cccc(O)c3)n2)n1-c1ccccc1)c1ccccc1 | false |

###

Test system: T-47D breast
Measurement description: NCI-60 one-dose screen, 48 h (100 = growth as untreated, 0 = no growth, -100 = all killed)
Particulars: 10 µM unless noted
Compounds without any hit were thinned out: in the full panel of roughly 83,000, 20% have a hit.

| Compound | growth, % |
| --- | --- |
| Cc1nccc2c3ccc(OCc4cn(Cc5ccc(Br)cc5)nn4)cc3n(CCCc3ccccc3)c12 | 93.3 |
| CCc1c(C)c2cc3c(c(C)c2oc1=O)OCC(=O)N3 | 58.6 |
| CC(C)[C@@H]1NC(=O)[C@]2(C)CSC(=N2)c2ccnc(c2)CNC(=O)C[C@@H](/C=C/CCS)OC1=O | -24.6 |
| S=c1ssnc1-c1ccccn1 | 27.1 |
| O=C(N/N=C/c1ccccc1O)c1ccccc1O | 25.7 |
| CCC1S/C(=N\N=C(/C)c2cccs2)N(c2ccccc2)C1=O (centres undefined) | 90.6 |
| Cc1ccc2nc(-c3ccc(-n4on4-c4ccc(/C=C/c5ccc(-n6on6-c6ccc(-c7nc8ccc(C)cc8s7)cc6)cc5S(=O)(=O)O)c(S(=O)(=O)O)c4)cc3)sc2c1 | 95.5 |
| Cl[C@@H]1CCO[C@H](c2cc3ccccc3c3ccccc23)C1 | 99.5 |
| CC(=O)n1cc(/C=C2\N=C(c3ccc(Cl)cc3)N(c3ccc(S(=O)(=O)Nc4nccs4)cc3)C2=O)c2ccccc21 | 55.3 |

###

System: SN12C renal
Measurement description: NCI-60 one-dose screen, 48 h
Particulars: 10 µM unless noted
About 83,000 compounds went through this panel and 20% of them were active in at least one assay; those are over-represented in the sample as a whole. The source made the active and inactive calls. How the source made its calls: active means growth percent below 10; inactive means the rest.
Outcome codes: Yes = active, No = inactive

| Compound | Category label |
| --- | --- |
| Cc1ccc(-c2cc(-c3nnc(SCC(=O)c4ccccc4)o3)c3ccccc3n2)cc1 | No |
| c1ccc(CNCCN(CCNCc2ccccn2)Cc2ccc3ccccc3c2)nc1 | Yes |
| CCOC(=O)C(C)(CSSCC(C)(NC(=O)c1ccc2ccccc2c1)C(=O)OCC)NC(=O)c1ccc2ccccc2c1 (centres undefined) | No |
| CCCC(C)(C)COC(=O)c1cccc(N)c1 | No |
| CCNc1cc(S(=O)(=O)O)ccc1C | No |
| COc1ccc(-c2nn(-c3ccc(NC(=O)Nc4cc(C(F)(F)F)cc(C(F)(F)F)c4)cc3)cc2-c2ccncc2)cc1Cl | No |
| O=S(c1ccccc1)c1ccc2nnnn2n1 (centres undefined) | No |
| C=CCOc1ccc(/C(Cl)=N/N=C(\Cl)c2cc(OC)c(OC)c(OC)c2)cc1 | No |
| CC1=C[S+](c2ccccc2)c2cccc3cc4ccccc4c1c23 (centres undefined) | Yes |
| Cc1cc(NC(=O)c2cccc(C(F)(F)F)c2)ccc1-n1ccc2c(NC(=O)c3ccccc3)nccc21 | No |
| Cc1cn(-c2nc3c(c(NCc4ccccc4)n2)COCC3)c2cccc(C(N)=O)c12 | No |
| C=C1C(=O)O[C@H]2[C@H]1CC/C(CNC(=O)/C1=C/CC[C@@]3(C)O[C@H]3[C@H]3OC(=O)C(=C)[C@@H]3CC1)=C\CC[C@@]1(C)O[C@@H]21 | No |
| C=C1C(=O)O[C@H]2[C@H]1CC/C(C(=O)NCCOCCOCC(=O)Nc1ccc(OC)c(C(N)=O)c1O)=C\CC[C@@]1(C)O[C@@H]21 | No |
| O=C(N/N=C1\SCC(=O)N1c1ccccc1)c1cc(-c2cc3ccccc3o2)nn1-c1ccccc1 | No |
| CCCCCCCCCCCCCCCCCCNCc1ccc(Cl)cc1 | Yes |
| NC(=O)C1=C[C@H]2[C@H]3C=C[C@@]2(O)C(=O)O[C@@H]3O1 | No |
| COc1ccc(-c2nnc(SCC(=O)Nc3ccc(C(=O)/C=C/c4ccc(Cl)cc4)cc3)o2)cc1OC | No |
| CC(C)(CCN=C(N)Nc1ccccn1)c1ccc(C(F)(F)F)cc1 | No |
| COc1ccc(Cn2cc(COc3ccc4c5ccnc(C)c5n(CCCc5ccccc5)c4c3)nn2)cc1 | No |

Numbers sourced from PubChem BioAssay (NCI).
